A collection of compounds and their measured growth
# Tested on: A498 renal
# PROTOCOL DETAILS: NCI-60 one-dose screen, 48 h (100 = growth as untreated, 0 = no growth, -100 = all killed)
# TEST PARAMETERS: 10 µM
Compounds without any hit were thinned out: in the full panel of roughly 83,000, 20% have a hit.
READOUT NAME: growth (%)

Cc1cc(O)c(C2=NN(c3ccc(S(N)(=O)=O)cc3)C(c3ccc(N(C)C)cc3)C2)c(C)c1Cl (centres undefined)	74.3
CC(=O)OC1Oc2ccccc2-c2oc(=O)c(-c3cc(=O)oc4cc(O)ccc34)cc21 (centres undefined)	54.8
COc1ccc(Cn2cc3c(c2-c2cc(OC)c(OC)c(OC)c2)CCc2cnoc2-3)cc1N	25
Cc1nc2ccc(-n3c(-c4ccc(Cl)cc4)nc4ccccc4c3=O)cc2n1Cc1ccccc1	89.7

====

# System: SK-OV-3 ovarian
# PROTOCOL DETAILS: NCI-60 one-dose screen, 48 h
# TEST PARAMETERS: 10 µM
Compounds without any hit were thinned out: in the full panel of roughly 83,000, 20% have a hit. The source made the active and inactive calls. The calls were made as follows: active = growth percent below 10; inactive = the rest.
Labels: active, inactive

COC(=O)c1c(C)nc(Nc2nc3ccccc3s2)nc1-c1ccc(Cl)cc1Cl	inactive
CCOC(=O)[C@@H](Cc1ccccc1)NC(=O)c1[nH]c2ccc(Cl)cc2c(=O)c1C	inactive
CC(C)=C1CCC(C)C/C1=N\N=C(N)N (centres undefined)	inactive
CC(=O)O[C@H]1CC[C@@]2(C)[C@@H](CC[C@@H]3[C@@H]2CC[C@]2(C)C=C(C=O)C[C@@H]32)C1	inactive
O=S(=O)(NCl)c1ccccc1	inactive
COc1cc(OC)cc(-c2n/c(=C\c3c(O)[nH]c4ccc(OC)cc34)cc3c2=Nc2ccccc2-3)c1	inactive
COc1cc(-c2c(C#N)c(N)n3c(nc4ccccc43)c2C#N)cc(Br)c1OC	inactive
CCCCCCCCCCSC(=N)N (tested in a mixture with another compound)	inactive
CCCCn1c(=O)[nH]c(N)c(C(c2ccc(Cl)cc2)c2c(N)[nH]c(=O)n(CCCC)c2=O)c1=O	inactive
O=C1/C(=C/c2ccc(O)cc2)CSc2ccc(Cl)cc21	inactive
COc1cc(C)c2sc3ccccc3c(=O)c2c1NCCN(C)C	inactive
CN(C)c1ccc2cc(-c3cc4c(oc3=O)-c3ccccc3OC4O)c(=O)oc2c1 (centres undefined)	inactive
O=C1c2cc(Cl)ccc2-c2c(O)cc(Cl)cc21	inactive
O=C(c1ccccc1)C(Sc1ccccc1)c1ccccc1 (centres undefined)	inactive
Cc1noc(C)c1-c1ccc2nc(NC(=O)[C@H]3CCN(C#N)C3)cn2c1	inactive
Fc1ccc(Nc2ccnc(N3CCN(c4ccnc5cc(Cl)ccc45)CC3)n2)cc1	inactive
CCc1nn2c(-c3ccccc3)c(-c3cc(OC)c(OC)c(OC)c3)nc2s1	inactive
COc1cc(-c2cc(-c3cc(OC)c(OC)c(OC)c3)nc3nc(N)[nH]c(=O)c23)ccc1Oc1ccnc2cc(Cl)ccc12	inactive
O=C(NCCCl)c1cc(Cl)cc(Cl)c1	inactive
CCOC(=O)C(CCC1=NC(C)(C)CC(C)O1)C(=O)OCC (centres undefined)	inactive
CCC(OC(=O)CC(C)C)c1ccccc1 (centres undefined)	inactive
CCCCCCCCCCCC(=O)NCCCN(C)C	inactive
N#CN1CC[C@H](C(=O)Nc2ncc(-c3ccncc3)s2)C1	active
CCN(CC)CCOC(=O)c1ccc(N=Nc2ccc(O)c(OC)c2)cc1	inactive
CCOC(=S)Sc1ccc([N+](=O)[O-])cc1[N+](=O)[O-]	inactive
Oc1cc(O)c(Br)cc1Br	inactive
NS(=O)(=O)c1ccc(N2N=C(c3ccc(-c4ccccc4)cc3)CC2c2ccc(Cl)cc2)cc1 (centres undefined)	inactive
O=C1/C(=C/c2ccc(O)cc2)Oc2ccc(Cl)cc21	inactive
N#CN1CC[C@H](C(=O)Nc2ncc(-c3ccccc3)s2)C1	active
Cc1nc2scc(-c3ccc(Cl)cc3)n2c(=O)c1CCN1CCOCC1	inactive
COc1c(C)c(C)c(OC)c2c1[nH]c(=O)c1c3cccnc3cn21	inactive
COc1ccc(C(=O)n2nc(CC(=O)NCc3ccccc3)nc2N)cc1	inactive
Cc1cccc2c1O/C(=C\c1ncc([N+](=O)[O-])n1C)C2=O	active
c1ccc(CC(NCCNC(Cc2ccccc2)c2ccccc2)c2ccccc2)cc1 (centres undefined)	inactive
N#CCC1CCCC1	inactive
NC(N)=NS(=O)(=O)c1ccc(Nc2ccc3nnc(-c4ccncc4)n3n2)cc1	inactive
CCn1nc(-c2ccccn2)c2cccnc2c1=S	inactive
O=C(CCc1ccccc1)N1CCN(C(=O)CCc2ccccc2)CC1	inactive
Cc1cnc(C=O)c2cccc([N+](=O)[O-])c12	inactive

====

# Tested on: HS 578T breast
# PROTOCOL DETAILS: NCI-60 one-dose screen, 48 h (100 = growth as untreated, 0 = no growth, -100 = all killed)
# TEST PARAMETERS: 10 µM
About 83,000 compounds went through this panel and 20% of them were active in at least one assay; those are over-represented in the sample as a whole.
A collection of molecules and their measured growth
READOUT NAME: growth (%)

CCOC(=O)c1c(Cl)c2c(n1Cc1cccc(OC)c1)-c1oncc1CC2	-11.2
O=C(/C=C/c1nnc2n(Cc3ccccc3)c(=O)c3c4c(sc3n12)CCCC4)c1ccccc1	110
O=C(COc1ccc(-c2nc3ccccc3[nH]2)cc1)N=Nc1c(O)[nH]c2ccccc12	103

====

# System: HT29 colon
# PROTOCOL DETAILS: NCI-60 one-dose screen, 48 h (100 = growth as untreated, 0 = no growth, -100 = all killed)
# TEST PARAMETERS: 10 µM
Compounds without any hit were thinned out: in the full panel of roughly 83,000, 20% have a hit.
READOUT NAME: growth (%)

O=C(N/N=C\c1cc(Cl)ccc1O)c1ccncc1	65.4
Cc1cn(C(=O)/C(Cl)=C(/Cl)C(=O)O)c2ccccc12	110
C#CCn1c(-c2cccc(OCCCCl)c2)nc2c1c(=O)n(C)c(=O)n2C	102
CC(=O)c1ccc(NCn2nc(-c3ccc(Cl)cc3)oc2=S)cc1	98.3
C=CCOc1ccc2c(c1)CC[C@@H]1[C@@H]2CC[C@]2(C)C(=O)/C(=N/O)C[C@@H]12	2.91
CCOC(=O)Nc1ccc2c(c1)C(=O)N(CC)c1ccccc1O2	-3.19
CN(C)CCCN1c2ccccc2Sc2ccc(C(F)(F)F)cc21	-8.15
O=C(Nc1ccc(Oc2ccc(Nc3nc4ccccc4s3)cc2)cc1)Nc1ccc(Cl)c(Cl)c1	31.7
O=C(O)CCCCSCCCCC(=O)O	90.4

====

# Tested on: SK-MEL-5 melanoma
# PROTOCOL DETAILS: NCI-60 one-dose screen, 48 h (100 = growth as untreated, 0 = no growth, -100 = all killed)
# TEST PARAMETERS: 10 µM
The panel holds about 83,000 compounds, 20% with a hit somewhere; the sample as a whole holds those more often.
Field: label. Allowed values: 1.0 (growth < 90%) or 0.0 (growth >= 90%).

Cc1ccc2oc(=O)cc(/C(=C3/C=CC=N3)c3ccc[nH]3)c2c1	1.0
Nc1c(C(=O)Nc2ccccc2F)sc2nc3c(cc12)C(=O)CCC3	1.0
CC(=O)N(O)c1ccc(/C=C/c2ccccc2)cc1	1.0
COC(=O)c1cnc2c(c1)Oc1ccccc1-c1ccnn1-2	0.0
COc1cc(C(=O)n2nc(N)c3c(C)cc(C)nc32)cc(OC)c1OC	1.0
COc1ccc2nc(-c3ccccc3)cc(C(C)=O)c2c1	0.0
Nc1cc(O)cc(O)c1	0.0
O=[N+]([O-])c1cc2ncccc2c2ncccc12	1.0
Oc1ccc(/C=N\Nc2ccccn2)c(O)c1	1.0
COc1ccc(S(=O)(=O)Nc2cc(/C=C\c3cc(OC)c(OC)c(OC)c3)ccc2OC)cc1	1.0
COc1ccc(-c2nnc(SC/C(=N\O)c3ccccc3)o2)cc1	0.0
CN(C1c2ccccc2Oc2ccccc21)S(=O)(=O)c1cc(Cl)ccc1Cl	1.0
CN(C)c1ccc2c(c1)OC(N)=C(C#N)C2c1ccc2c(c1)CCO2 (centres undefined)	1.0
NC(N)=NS(=O)(=O)c1ccc(Nc2ccc3nnc(-c4ccncc4)n3n2)cc1	0.0
COc1cc(-c2nc3ccc(C)cc3[nH]2)ccc1OCc1nnc(-c2ccc(CC(C)C)cc2)o1	1.0
O=S(=O)(NC1c2ccccc2Oc2ccccc21)c1cc(Cl)ccc1Cl	0.0
COc1cc(N=C2C(=O)N(Cc3ccccc3)c3ccccc32)cc(OC)c1OC	0.0
Oc1ccccc1-c1nnc(Cn2c(Cc3cccc4ccccc34)nc3ccccc32)o1	0.0
Cc1ccc(/C=C2\CN(Cc3cn(CCNc4ccnc5cc(Cl)ccc45)nn3)C/C(=C\c3ccc(C)cc3)C2=O)cc1	1.0
CCOC(=O)c1c(Cl)c2c(n1Cc1cccc(OC)c1)-c1oncc1CC2	1.0
Cc1cc(C)c(C(=O)OC(C)CNC2CCCCC2)c(C)c1 (centres undefined)	0.0
CN(C)c1ccc2cc(-c3cc4c(oc3=O)-c3ccccc3OC4O)c(=O)oc2c1 (centres undefined)	1.0
